Value source: patent US20250154277A1

Molecular target: T1, human 5T4-His protein (human, UniProt Q13641 32-355)
T1 construct: also called recombinant 5T4 protein (human 5T4-his tag); human 5T4 protein; not shown: His tag
T1 sequence (looked up): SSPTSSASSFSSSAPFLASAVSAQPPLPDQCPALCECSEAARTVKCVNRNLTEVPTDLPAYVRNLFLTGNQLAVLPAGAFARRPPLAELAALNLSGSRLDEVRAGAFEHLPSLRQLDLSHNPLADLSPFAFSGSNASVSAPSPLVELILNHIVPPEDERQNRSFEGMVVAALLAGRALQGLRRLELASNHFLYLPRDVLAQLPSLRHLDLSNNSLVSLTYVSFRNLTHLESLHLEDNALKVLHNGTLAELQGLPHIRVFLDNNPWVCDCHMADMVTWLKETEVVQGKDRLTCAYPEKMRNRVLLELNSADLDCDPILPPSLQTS
Experiment: SPR Biacore, Protein A capture
Recorded measurements of Kd, one per entry
Metric: Kd (nM)

1) Hu286B4-15 (antibody, V domains shown, humanized) VH: EVQLQESGPGLVKPSDTLSLTCAVSGYSISNNYYWNWIRQPPGKGLEWMGYITYDGSNNYNPSLKNRITVSRDTSKNQFSLKLSSVTAVDTAVYYCARGGGQLRFDYWGQGTTVTVSS VL: SIVMTQSPSSLSASVGDRVTITCKASQSVSNEVTWYQQKPGKSPKMLIYYASNRYTGVPDRFSGSGYGTDFTFTISSLQPEDIATYFCQQDYSSPWTFGGGTKVEIK :: 1.04
2) Hu286B4-8 (antibody, V domains shown, humanized) VH: EVQLQESGPGLVKPSDTLSLTCAVSGYSISNNYYWNWIRQPPGKGLEWIGYITYDGSNNYNPSLKNRITMSRDTSKNQFSLKLSSVTAVDTAVYYCARGGGQLRFDYWGQGTTVTVSS VL: DIQMTQSPSSLSASVGDRVTITCKASQSVSNEVTWYQQKPGKAPKMLIYYASNRYTGVPDRFSGSGYGTDFTFTISSLQPEDIATYYCQQDYSSPWTFGGGTKVEIK :: 1.08
3) Hu286B4-10 (antibody, V domains shown, humanized) VH: EVQLQESGPGLVKPSDTLSLTCAVSGYSISNNYYWNWIRQPPGKGLEWIGYITYDGSNNYNPSLKNRITMSRDTSKNQFSLKLSSVTAVDTAVYYCARGGGQLRFDYWGQGTTVTVSS VL: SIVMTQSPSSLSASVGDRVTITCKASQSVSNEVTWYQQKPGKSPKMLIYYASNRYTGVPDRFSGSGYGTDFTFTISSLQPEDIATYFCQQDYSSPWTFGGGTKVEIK :: 1.93
